Tested on: Neuregulin-1 EGF-like domain
MEASUREMENT DESCRIPTION: binders of neuregulin-1 EGF-like domain, primary screen, biochemical, small-molecule microarray, 635 nm fluorescence (AID 1081);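 note: binding of the protein to compounds printed on small-molecule microarray slides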
TEST CONTEXT: small-molecule microarray binding, higher = more signal
For each of the molecules below, state its composite z-score.
// print number alone

COc1ccc([Si](C)(C)[C@H]2[C@H](CC(=O)N(CCO)Cc3ccccc3)O[C@@]3(C(=O)N(c4ccccc4)c4ccccc43)[C@@H]2C)cc1 yielded composite z-score of 0.46

C=C(/C=C\CNS(=O)(=O)c1ccc(C)cc1)[C@H](O)[C@H]1CCCN1S(=O)(=O)c1ccccc1[N+](=O)[O-] yielded composite z-score of 0.577

C=C(CCCC)/C(=C/C[C@@H](OC(C)=O)c1cccc(OCCO)c1)c1cc(C(=O)OC)ccc1OC yielded composite z-score of 0.31

C=C(COC)C(=O)CC[C@H](OC(C)=O)c1ccccc1OCCO yielded composite z-score of 0.355

C=CCOC(=O)[C@@H]1[C@H]2C(=O)O[C@H](c3ccccc3)[C@H](c3ccccc3)N2[C@H](c2ccc(OCCOC(=O)[C@@H]3C[C@@H]4C(=O)N[C@@H](CC(C)C)C(=O)N4[C@@H]3c3ccc(O)cc3)cc2)[C@@]12C(=O)Nc1ccc(I)cc12 yielded composite z-score of 1.29

COc1cccc(C)c1NC(=O)O[C@H]1[C@H](OC(=O)Nc2ccccc2)[C@@H](OC(=O)Nc2ccccc2)[C@@H](OC)O[C@@H]1CO yielded composite z-score of 1.46

COC(=O)[C@@]1(Cc2ccc(F)cc2)[C@H]2c3cc(C(=O)N4CCCC4)n(Cc4ccc(C(F)(F)F)nc4)c3C[C@H]2CN1C(=O)c1ccccc1 yielded composite z-score of 0.92

CC(C)c1ccc(NN2C(C(O)C(C)c3ccccc3)C=CC3C(=O)N(c4ccccc4)C(=O)C32)cc1 (centres undefined) yielded composite z-score of 1.12

Cc1c(NC(=O)/C(C#N)=C/C=C/c2ccc([N+](=O)[O-])cc2)c(=O)n(-c2ccccc2)n1C yielded composite z-score of 1.25

COCCOC(=O)N1C(=O)[C@@]2(c3cc(C#CCNC(N)=O)ccc31)[C@H](C(N)=O)[C@H]1C(=O)O[C@H](c3ccccc3)[C@H](c3ccccc3)N1[C@@H]2c1ccc(O)cc1 yielded composite z-score of 0.235

CCCCCN1CC=CC23O[C@@H]4/C=C\CCCOC(=O)C4[C@H]2C(=O)N(CCO)[C@@H]3C1=O (some centres undefined) yielded composite z-score of 1.5

COC(=O)[C@]1(Cc2ccccc2CN=[N+]=[N-])N=C(c2ccc(OCCCO)cc2)O[C@@H]1c1ccccc1N=[N+]=[N-] yielded composite z-score of 1.18

COc1ccc([Si](C)(C)[C@H]2[C@H](CCO)O[C@@]3(C(=O)N(Cc4ccccc4)c4ccc(NC(=O)[C@H](C)O)cc43)[C@@H]2C)cc1 yielded composite z-score of 1.18

[N-]=[N+]=NCc1ccccc1C[C@@]1(C(N)=O)N=C(c2ccc(OCCCO)cc2)O[C@@H]1c1ccccc1N=[N+]=[N-] yielded composite z-score of 1.07

====

MEASUREMENT DESCRIPTION: small-molecule microarray binders of probe aNog, primary screen, biochemical, biotinylated probe, 635/667 nm fluorescence (AID 1115);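 note: probe is biotinylated aNog protein used at 0.15 µg/mL for 1 h at 4 C; z-score combines 667 nm fluorescence of each spot with its signal to noise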
TEST CONTEXT: higher = more signal
MEASUREMENT NAME: composite z-score

C=CCNC(=O)[C@H]1[C@@H]2C(=O)O[C@@H](c3ccccc3)[C@@H](c3ccccc3)N2[C@@H](c2ccc(O)cc2)[C@]12C(=O)Nc1ccccc12 yielded composite z-score of -0.0089

C=CC[C@H](O)c1ccc(O)c2ccccc12 yielded composite z-score of -0.158

O=C1O[C@H](c2ccccc2)[C@H](c2ccccc2)N2[C@H]1[C@@H](C(=O)O)[C@]1(C(=O)Nc3ccccc31)[C@H]2c1ccc(OCCO)cc1 yielded composite z-score of -0.574

C=C(CCCC)/C(=C/C[C@@H](OC(C)=O)c1ccc(OCCO)cc1)c1cc(C(=O)OC)ccc1OC yielded composite z-score of 0.408
